Reported growth values are given for each entry in this list.
# System: SK-MEL-2 melanoma
# Method: NCI-60 one-dose screen, 48 h (100 = growth as untreated, 0 = no growth, -100 = all killed)
# Stated conditions: 10 µM unless noted
# Description: Growth inhibition of the SK-MEL-2 human tumor cell line is measured as a screen for anti-cancer activity. Cells are grown in 96 well plates and exposed to the test compound for 48 hours. Compounds are tested at a single concentration, which is 10^-5 M for most compounds. The reported endpoint is percent growth (GI% or GIPRCNT), where numbers from 0 - 100% represent growth inhibition, and numbers from -100% - 0 represent cell death. For example, a value of 40 represents 60% growth inhibition. […]
The panel holds about 83,000 compounds, 20% with a hit somewhere; the sample as a whole holds those more often.
Report only the number, with the unit % understood.

Molecule: CCN(CC)c1ccc2c(c1)Oc1nc(N)c(C#N)c(N)c1C2Sc1ccc(SC)cc1 (configuration not stated)
Unit text: %
Assay value: -59.6

Molecule: CN(C)c1ccc(N=Nc2ccc(Br)cn2)c(O)c1
Unit text: %
Assay value: 18.8

Molecule: COc1ccc(-n2nc(C)c3c(Nc4ccc(NC(=O)Nc5c(Cl)cccc5Cl)cc4)ncnc32)cc1
Unit text: %
Assay value: 79.1

Molecule: COc1ccc(-c2nc3ccc(-c4nc5ccc(N6CCN(c7ccccc7)CC6)cc5[nH]4)cc3[nH]2)cc1OC
Unit text: %
Assay value: 89

Molecule: c1ccc2[nH]c(-c3ccc(Nc4nc(N5CCCC5)nc5[nH]ncc45)cc3)nc2c1
Unit text: %
Assay value: -48.1

Molecule: COc1ccc(/C=C/C(=O)c2cc(O)ccc2O)cc1
Unit text: %
Assay value: 101

Now let's try a different one.
Qu. Return the recorded growth value; entry: O=C1Nc2c(ccc(Cl)c2Cl)/C1=C\c1ccc(C(F)(F)F)cc1
Ans. 91.4

---

# Tested on: U251 CNS
# Method: NCI-60 one-dose screen, 48 h (100 = growth as untreated, 0 = no growth, -100 = all killed)
# Stated conditions: 10 µM unless noted
This is part of a sample that, as a whole, favours compounds with a hit. Of some 83,000 tested, about 20% had one in any assay.
Parameter threshold = 90%. Response is Criterion met when growth meets or exceeds it, else Criterion not met.

Molecule: COc1ccc(-n2nc(C)c3c(Nc4ccc(NC(=O)Nc5ccc(Cl)c(C(F)(F)F)c5)cc4)ncnc32)cc1
Cat: Criterion not met

Qu. Record CCN1CCN(c2nc(NCCNc3ccnc4cc(Cl)ccc34)c3ccccc3n2)CC1 ; criterion: growth no lower than 90%. Met?
Ans. Criterion not met

Qu. Given the entry FC(F)(F)c1[nH]ncc1-c1nc2ccc3n[nH]c(C#Cc4cccnc4)c3c2c2c1CCCC2 , answer whether its growth meets or surpasses 90%.
Ans. Criterion not met

---

# Test system: K-562 leukemia
# Method: NCI-60 one-dose screen, 48 h (100 = growth as untreated, 0 = no growth, -100 = all killed)
# Stated conditions: 10 µM unless noted
About 83,000 compounds went through this panel and 20% of them were active in at least one assay; those are over-represented in the sample as a whole.
Lab note: cut-off is 60%. Strictly less in growth is T. Exactly 60% or more is F.

The examples below pair each entry with its known result.
Smiles code: COc1cc(Nc2cc(C)nc(N3CCN(c4ccnc5cc(Cl)ccc45)CC3)n2)cc(OC)c1
Cat: T
--
Smiles code: Cc1c(/C=C/[N+](=O)[O-])ccc2c1[nH]c1ccccc12
Cat: F
--
Smiles code: Cn1cc(C(=O)c2nc(-c3c[nH]c4ccc(F)cc34)no2)c2cc(F)ccc21
Cat: F
--
Smiles code: O=C(Cn1cccc(Nc2ccccc2)c1=O)Nc1ccccc1
Cat: F
--
Smiles code: COc1ccc(S(=O)(=O)N2CCN(C)CC2)cc1NC(=O)c1[nH]c(C)c2c1CCCCC2=O
Cat: T

Please find the next molecule below.
Qu. State whether 60% exceeds growth recorded for COc1cc2nc(N3CCCC3)nc(NCCc3ccccc3)c2cc1OC .
Ans. T

---

# System: COLO 205 colon
# Method: NCI-60 one-dose screen, 48 h
# Stated conditions: 10 µM unless noted
Compounds without any hit were thinned out: in the full panel of roughly 83,000, 20% have a hit. The source made the active and inactive calls. The calls were made as follows: active = growth percent below 10; inactive = the rest.
Permitted responses: active, inactive

Observe how each entry below is paired with its result.
Smiles code: O=C(N/N=C/c1c[nH]c2ccccc12)c1cc(-c2ccccc2)on1
Cat: inactive
--
Smiles code: CC/C=C\C[C@H]1C/C=C2/C(=O)C=C[C@H]2C/C=C\CCCC(=O)O1
Cat: active
--
Smiles code: COc1ccc(-c2nn(-c3ccc(Cl)cc3)cc2-c2nc3ccccc3[nH]2)cc1
Cat: inactive
--
Smiles code: O=C(Oc1cccnc1)c1ccsc1Nc1ccnc(C(F)(F)F)c1
Cat: inactive
--
Smiles code: COc1cccc(/C=C2\Oc3cc(OCCN4CCCC4)ccc3C2=O)c1
Cat: inactive
--
Smiles code: COc1ccc(CCNc2nc(SC)nc(-c3cccc([N+](=O)[O-])c3)c2C#N)cc1OC
Cat: inactive

Qu. In this assay, the call recorded for CC(C)(O)c1cn(CCCCN2C(=O)C(=O)c3ccccc32)nn1 was what?
Ans. inactive

Qu. In this assay, the call recorded for CN1CCN=C1c1ccc(NC(=O)c2ccc(C(=O)Nc3ccc(C4=NCCN4C)cc3)cc2)cc1 was what?
Ans. inactive

Qu. Per the assay record, what outcome was assigned to C#CCOc1ccc2ncnc(Nc3cccc(CNC(=O)C=C)c3)c2c1 ?
Ans. inactive

---

# Test system: MOLT-4 leukemia
# Method: NCI-60 one-dose screen, 48 h (100 = growth as untreated, 0 = no growth, -100 = all killed)
# Stated conditions: 10 µM unless noted
Compounds without any hit were thinned out: in the full panel of roughly 83,000, 20% have a hit. Active and inactive are the calls of the source. The calls were made as follows: active = growth percent below 10; inactive = the rest.
Property measured: growth

Example entries begin here.
Compound: Cc1cc2nc3[nH]c4ccccc4c3nc2cc1C
Measurement target: MOLT-4 leukemia
Assay value: 89.7% (inactive)

Compound: CCn1c(O)c(/C=N/NC(=O)C(C)c2ccc(CC(C)C)cc2)sc1=S (stereo not given)
Measurement target: MOLT-4 leukemia
Assay value: 18.4% (inactive)

Compound: CCC#CC[C@H](O)C/C=C1/C(=O)C=C[C@@H]1C/C=C\CCCC(=O)OC
Measurement target: MOLT-4 leukemia
Assay value: 1.17% (active)

Compound: COc1cccc(-c2nc3sccn3c2-c2ccnc(NCCCNS(=O)(=O)c3c(Cl)cccc3Cl)c2)c1
Measurement target: MOLT-4 leukemia
Assay value: 28.9% (inactive)

Compound: Cc1cc(N2CCN(C)CC2)nc(NC2CCCC(Nc3ccnc4cc(Cl)ccc34)C2)n1 (stereo not given)
Measurement target: MOLT-4 leukemia
Assay value: 1.05% (active)

Compound: O=[N+]([O-])c1ccccc1/C=N\NC(=S)N/N=C/c1ccccc1[N+](=O)[O-]
Measurement target: MOLT-4 leukemia
Assay value: 37.8% (inactive)

Compound: CCN(CC)S(=O)(=O)c1ccc(OC)c(NC(=O)c2[nH]c(C)c3c2CCCCC3=O)c1
Measurement target: MOLT-4 leukemia
Assay value: 64.9% (inactive)

Compound: CCN1CCN(c2nc(NCCCNc3ccnc4cc(Cl)ccc34)c3ccccc3n2)CC1
Measurement target: MOLT-4 leukemia
Assay value: 13.6% (inactive)

Qu. For MOLT-4 leukemia, give growth of the listed compound: Cc1cc2c3ccccc3ccc2[n+]2ccccc12
Ans. 2.74% (active)

Qu. Find growth for Nc1n[nH]c2ccc([C@@H]3Nc4ccc5[nH]ncc5c4[C@H]4C5C=CC(C5)[C@@H]34)cc12 (stereo not given in full) on MOLT-4 leukemia and write it down.
Ans. 15.1% (inactive)

---

# Tested on: SF-268 CNS
# Method: NCI-60 one-dose screen, 48 h (100 = growth as untreated, 0 = no growth, -100 = all killed)
# Stated conditions: 10 µM unless noted
Compounds without any hit were thinned out: in the full panel of roughly 83,000, 20% have a hit. Active and inactive are the calls of the source. Rule for the calls: active = growth percent below 10; inactive = the rest.
Property measured: growth

A selection of reference data follows.
Smiles code: Nc1ccc(S(=O)(=O)O)c2ccc(N=Nc3ccc(N=Nc4ccc(S(=O)(=O)O)cc4)c4ccccc34)c(O)c12
growth: 101% (inactive)

Smiles code: CC(=O)O[C@H]1CC[C@]2(C)[C@H]3CC=C4[C@@H]5CC(C)(C)CC[C@]5(C(=O)NCCNCCNCCN)CC[C@@]4(C)[C@]3(C)CC[C@H]2C1(C)C
growth: 87.1% (inactive)

Smiles code: FC(F)(F)c1[nH]ncc1-c1nc2ccc3n[nH]c(C#Cc4cccnc4)c3c2c2c1CCCC2
growth: 49.6% (inactive)

Smiles code: NS(=O)(=O)c1ccc(CN=C2NC(=O)S/C2=C\c2ccc(Br)cc2)cc1
growth: 92.3% (inactive)

Smiles code: C#CCOc1ccc2ncnc(N3CCN(C(=O)CCl)CC3)c2c1
growth: 68.7% [8.25 µM] (inactive)

Qu. Quickly give me recorded growth for O=C(Nc1ccc(Cl)cc1)c1cc2cc(F)ccc2cc1O
Ans. 23.6% (inactive)

Qu. Assign growth to the following record: C=CC(=O)Nc1cccc(-c2nc(SC)nc(NCCc3ccc(OC)c(OC)c3)c2C#N)c1
Ans. 61.9% (inactive)
